- measurement target: T1, Human IL-1Rrp2/IL-1R6 protein, His Tag (ACROBiosystems, IL2-H52H6) (human, UniProt Q9HB29 20-335)
- T1 construct: Bought protein; the soluble protein is likely only the extracellular part; also called hIL-36R; human IL36R antigen; not shown: His tag
- T1 sequence: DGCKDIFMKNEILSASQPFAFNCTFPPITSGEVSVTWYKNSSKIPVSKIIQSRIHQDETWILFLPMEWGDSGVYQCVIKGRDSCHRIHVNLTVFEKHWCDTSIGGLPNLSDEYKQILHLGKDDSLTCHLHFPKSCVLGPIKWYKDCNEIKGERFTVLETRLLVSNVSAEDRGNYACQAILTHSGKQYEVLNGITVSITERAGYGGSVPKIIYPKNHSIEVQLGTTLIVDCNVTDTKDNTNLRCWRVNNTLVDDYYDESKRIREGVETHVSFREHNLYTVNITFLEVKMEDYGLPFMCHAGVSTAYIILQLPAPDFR
- experimental protocol: BLI (ForteBio Octet), antibody on ProA sensor, 1:1 model
- Method: The affinity of anti-IL-36R antibodies to CynoIL36R-ECD mFc and human IL-1Rrp2/IL-IR6 protein, His Tag (ACROBiosystems, IL2-H52H6) was measured by a ForteBio molecular interaction instrument. […] After the completion of dissociation in each cycle, the biosensor was regenerated for the next capture; the procedure was repeated until the affinity of the different anti-IL-36R antibodies for IL-36R was determined. […]
measure: kon (M⁻¹ s⁻¹)
Reply with just the number (in M⁻¹ s⁻¹).

# binder, kon (M⁻¹ s⁻¹)
measured = [
    ("hz84C4-1.5 (antibody, human IgG4 S228P, kappa, V domains shown, Humanized, human IgG4 / kappa) VH: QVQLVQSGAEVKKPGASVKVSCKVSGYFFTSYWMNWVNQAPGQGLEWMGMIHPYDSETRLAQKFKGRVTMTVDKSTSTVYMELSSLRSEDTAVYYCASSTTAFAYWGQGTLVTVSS VL: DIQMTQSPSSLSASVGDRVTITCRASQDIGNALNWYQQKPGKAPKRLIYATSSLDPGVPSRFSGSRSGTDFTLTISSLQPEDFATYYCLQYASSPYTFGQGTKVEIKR", 100000),
    ("hz84C4-2.3 (antibody, human IgG4 S228P, kappa, V domains shown, Humanized, human IgG4 / kappa) VH: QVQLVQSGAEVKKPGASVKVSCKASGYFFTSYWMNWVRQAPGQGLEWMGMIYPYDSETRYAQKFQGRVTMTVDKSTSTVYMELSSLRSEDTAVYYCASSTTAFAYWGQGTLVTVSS VL: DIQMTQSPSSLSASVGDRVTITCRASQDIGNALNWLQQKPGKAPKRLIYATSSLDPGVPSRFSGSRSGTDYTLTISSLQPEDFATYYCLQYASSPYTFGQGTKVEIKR", 61600),
    ("hz84C4-2.5 (antibody, human IgG4 S228P, kappa, V domains shown, Humanized, human IgG4 / kappa) VH: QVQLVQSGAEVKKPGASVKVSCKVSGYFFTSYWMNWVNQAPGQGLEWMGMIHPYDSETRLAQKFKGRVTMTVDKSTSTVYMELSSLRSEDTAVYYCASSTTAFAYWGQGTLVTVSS VL: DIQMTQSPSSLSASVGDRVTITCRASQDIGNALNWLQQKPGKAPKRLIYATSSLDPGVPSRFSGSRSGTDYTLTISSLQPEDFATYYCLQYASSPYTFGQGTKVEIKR", 96400),
    ("hz84C4-2.2 (antibody, human IgG4 S228P, kappa, V domains shown, Humanized, human IgG4 / kappa) VH: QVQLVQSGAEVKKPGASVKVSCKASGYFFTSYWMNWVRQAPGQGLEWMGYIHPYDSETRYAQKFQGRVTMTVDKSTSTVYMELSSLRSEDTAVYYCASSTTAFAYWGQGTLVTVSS VL: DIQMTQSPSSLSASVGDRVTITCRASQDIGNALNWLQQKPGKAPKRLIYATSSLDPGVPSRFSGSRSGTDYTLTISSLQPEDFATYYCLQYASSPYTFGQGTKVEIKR", 91500),
    ("hz84C4-1.1 (antibody, human IgG4 S228P, kappa, V domains shown, Humanized, human IgG4 / kappa) VH: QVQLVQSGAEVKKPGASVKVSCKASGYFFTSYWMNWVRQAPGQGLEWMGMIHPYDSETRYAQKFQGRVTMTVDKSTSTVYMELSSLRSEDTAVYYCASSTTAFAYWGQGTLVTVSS VL: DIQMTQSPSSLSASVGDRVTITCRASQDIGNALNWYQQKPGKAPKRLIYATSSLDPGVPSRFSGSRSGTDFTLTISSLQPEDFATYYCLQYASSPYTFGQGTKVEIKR", 107000),
]

Lookup: kon for hz84C4-1.2 (antibody, human IgG4 S228P, kappa, V domains shown, Humanized, human IgG4 / kappa) VH: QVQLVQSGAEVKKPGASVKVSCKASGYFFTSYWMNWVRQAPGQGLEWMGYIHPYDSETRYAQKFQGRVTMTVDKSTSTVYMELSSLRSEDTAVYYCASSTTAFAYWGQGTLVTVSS VL: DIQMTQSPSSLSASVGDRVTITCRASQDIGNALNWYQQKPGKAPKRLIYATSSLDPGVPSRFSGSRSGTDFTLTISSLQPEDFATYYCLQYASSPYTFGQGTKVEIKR ?
Found: 100000

Lookup: kon for hz84C4-2.4 (antibody, human IgG4 S228P, kappa, V domains shown, Humanized, human IgG4 / kappa) VH: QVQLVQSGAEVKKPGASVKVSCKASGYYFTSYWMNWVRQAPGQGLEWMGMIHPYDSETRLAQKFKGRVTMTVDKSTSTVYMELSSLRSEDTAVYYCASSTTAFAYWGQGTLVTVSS VL: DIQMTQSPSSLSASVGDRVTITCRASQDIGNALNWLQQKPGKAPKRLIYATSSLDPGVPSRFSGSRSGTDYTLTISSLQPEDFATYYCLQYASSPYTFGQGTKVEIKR ?
Found: 105000
